- Tested on: test plant species
- protocol_description: Post-emergent herbicidal activity test (greenhouse, foliar spray, visual growth reduction)
- Type: in vivo
- condition_summary: post-emergence, 336 h, lambsquarters (Chenopodium album), 14 Days After Application, 140 g ai/ha, read-out: Visual Growth Reduction (%) CHEAL
Property: pest or weed control at 140 g/ha; scope: individual molecules

molecule | target_or_system | pest or weed control at 140 g/ha
COC(=O)c1nc(-c2ccc(OS(C)(=O)=O)cc2Cl)ccc1Cl [F288] | test plant species | 85 to 94%
COc1nc(C(F)(F)F)ccc1-c1nc(C(=O)O)c(Cl)cc1F [F347] | test plant species | 95 to 100%
COC(=O)c1nc(-c2cc3nonc3cc2F)c(F)cc1Cl [F318] | test plant species | 60 to 74%
COC(=O)c1nc(-c2cc(F)c(C(F)(F)F)cc2Cl)c(Cl)cc1Cl [F246] | test plant species | 95 to 100%
